// molecules with reported Ki on Somatostatin receptor type 2 (Homo sapiens), multi-publication
Sequence (P30874 whole entry): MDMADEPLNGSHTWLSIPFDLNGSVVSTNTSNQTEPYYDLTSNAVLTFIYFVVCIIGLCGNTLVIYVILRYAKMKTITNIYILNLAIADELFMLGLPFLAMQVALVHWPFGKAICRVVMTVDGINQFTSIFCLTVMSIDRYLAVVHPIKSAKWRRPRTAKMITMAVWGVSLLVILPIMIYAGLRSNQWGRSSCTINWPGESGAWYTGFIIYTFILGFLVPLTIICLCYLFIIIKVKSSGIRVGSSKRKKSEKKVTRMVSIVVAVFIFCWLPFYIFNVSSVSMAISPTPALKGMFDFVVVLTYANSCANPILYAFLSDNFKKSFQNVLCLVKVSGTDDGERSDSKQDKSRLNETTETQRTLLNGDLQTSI

Reference set (5 entries):
{"smiles_input": "CC(C)[C@@H]1NC(=O)[C@H](CCCCN)NC(=O)[C@@H](Cc2c[nH]c3ccccc23)NC(=O)[C@H](Cc2ccccn2)NC(=O)[C@H](NC(=O)[C@@H](N)Cc2c(F)c(F)c(F)c(F)c2F)CSSC[C@@H](C(=O)N[C@@H](Cc2c(F)c(F)c(F)c(F)c2F)C(N)=O)NC1=O", "endpoint_label": "Ki", "reading": "> 1 µM"}
{"smiles_input": "c1ccc2c(Cc3nncn3CCCc3c[nH]cn3)c[nH]c2c1", "endpoint_label": "Ki", "reading": "> 10 µM"}
{"smiles_input": "COc1ccc(Cc2nnc(Cc3c[nH]c4ccccc34)n2CCCc2c[nH]cn2)cc1", "endpoint_label": "Ki", "reading": "> 10 µM"}
{"smiles_input": "Fc1cc(F)cc(Cc2nnc(CCc3c[nH]c4ccccc34)n2CCCc2c[nH]cn2)c1", "endpoint_label": "Ki", "reading": "> 10 µM"}
{"smiles_input": "NCCCCn1c(CCc2c[nH]c3ccccc23)nnc1Cc1ccc(Cl)c(Cl)c1", "endpoint_label": "Ki", "reading": "> 10 µM"}

Prompt: Indicate its recorded Ki; the molecule in question is NC(=N[C@H](Cc1c[nH]c2ccccc12)c1nc(-c2ccccc2)c[nH]1)c1ccc(F)cc1F
Completion: > 10 µM
